Tested on: SNB-19 CNS
measurementDescription: NCI-60 one-dose screen, 48 h
experimentalContext: 10 µM unless noted
Method: Growth inhibition of the SNB-19 human tumor cell line is measured as a screen for anti-cancer activity. Cells are grown in 96 well plates and exposed to the test compound for 48 hours. Compounds are tested at a single concentration, which is 10^-5 M for most compounds. The reported endpoint is percent growth (GI% or GIPRCNT), where numbers from 0 - 100% represent growth inhibition, and numbers from -100% - 0 represent cell death. For example, a value of 40 represents 60% growth inhibition. […]
The panel holds about 83,000 compounds, 20% with a hit somewhere; the sample as a whole holds those more often. The source made the active and inactive calls. The calls were made as follows: active = growth percent below 10; inactive = the rest.
A correct response names exactly one class from Yes (active), No (inactive)

Study these solved cases before continuing.
compound | groupLabel
CCOC(=O)c1c(NC(=O)c2ccccc2)sc2c(O)c(CN(CC)CC)ccc12 | No
CCN(CC)Cc1cc(Nc2ccnc3cc(Cl)ccc23)cc(-c2ccc(Cl)cc2)c1O | No
NS(=O)(=O)c1ccc(N2N=C(c3ccc(Br)cc3)CC2c2cn(-c3ccccc3)nc2-c2ccc(Cl)cc2)cc1 (stereo not given) | No
C/C=C(\C)C(C(=O)NC1CCCCC1)N(C(=O)C1CCc2cc(F)ccc2O1)c1ccc([N+](=O)[O-])cc1 (stereo not given) | No

Query: What call does the record list for O=C(/C=C/c1cc([N+](=O)[O-])ccc1Cl)c1ccccc1 ?
Reply: No

Query: What call does the record list for CCN(CC)CCCC(C)Nc1cnc(C(=O)Nc2cccc3ccc(OC)nc23)cn1 (stereo not given) ?
Reply: No

Query: What call does the record list for Fc1ccc(-c2nnc(N3CCOCC3)c3ccccc23)cc1 ?
Reply: No

Query: What call does the record list for COc1ccc(C2CC(c3ccc(Nc4ccnc5cc(Cl)ccc45)cc3)=NN2c2ccccc2)cc1 (stereo not given) ?
Reply: No

Query: What call does the record list for Oc1ccc(Cl)cc1-c1cc(-c2ccccc2Cl)[nH]n1 ?
Reply: No

Query: What call does the record list for COc1ccc(NC(=O)/C=C/c2ccc(Cl)c(Cl)c2)cn1 ?
Reply: No

Query: What call does the record list for CC(C)(C)c1ccc(Cn2c(-c3nonc3N)nc3ccccc32)cc1 ?
Reply: No

Query: What call does the record list for COc1ccc(/C(=C\c2cc(OC)c(OC)c(OC)c2)C(=O)N2CCN(c3ccccc3)CC2)cc1O ?
Reply: No

Query: What call does the record list for COc1cc(C2CC(c3cccc(Nc4ccnc5cc(Cl)ccc45)c3)=NN2c2ccccc2)cc(OC)c1OC (stereo not given) ?
Reply: No

Query: What call does the record list for Clc1ccc2c(c1)-n1cccc1C(c1ccc3ccccc3c1)=NC2 ?
Reply: No

Query: What call does the record list for ClCc1cccc(CSc2ncnc3c2ncn3Cc2cccc(CCl)c2)c1 ?
Reply: No

Query: What call does the record list for COc1ccc(C(=O)C(C#N)c2cc(OC)c(OC)c(OC)c2)cc1 (stereo not given) ?
Reply: No

Query: What call does the record list for OC(c1cc(-c2ccc(C(F)(F)F)cc2)nc(-c2ccc(C(F)(F)F)cc2)c1)C1CCCCN1 (stereo not given) ?
Reply: Yes

====

System: EKVX NSCLC
measurementDescription: NCI-60 one-dose screen, 48 h (100 = growth as untreated, 0 = no growth, -100 = all killed)
experimentalContext: 10 µM unless noted
The panel holds about 83,000 compounds, 20% with a hit somewhere; the sample as a whole holds those more often.
Please note: Yes applies when growth is 70% or greater, and No applies otherwise.

Study these solved cases before continuing.
sampleSmiles | groupLabel
C[C@@H]1C[C@H](N)C[C@H](c2ccncc2NC(=O)c2ccc(F)c(-c3c(F)cccc3F)n2)C1 | Yes
C/C(CC(=O)NNc1ccc([N+](=O)[O-])cc1)=N\Nc1ccc([N+](=O)[O-])cc1 | No
CN(C)CCOc1nc2c3ccncc3cc(-c3cccc(Cl)c3)c2c2cnccc12 | No
CC1=C(O)C(=O)C(c2c(C)cc(C)c(Br)c2C)=C(O)C1=O | Yes

# input for lookup
Query: Does the compound C#CCNC(=S)N/N=C(\C)c1ccccn1 have recorded growth that is 70% or more?
Reply: No
